# Tested on: K4 kissing-loop RNA reporter;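 note: bound reporter read as fluorescence of individual clusters on recovered sequencing chips by microscopy, with normalized cluster intensities fitted with a binding model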
# protocol-description: apparent KD of K4 kissing-loop reporter; higher = weaker reporter binding
# experimental-parameters: Eterna round: R107; input ligand: FMN 200 uM
# key: entry, value: apparent KD of K4 kissing-loop reporter
quantity: apparent KD of K4 kissing-loop reporter (nM)

UGAUAGGACAGAAGGAGCGGCAGUGAUGUUGCCAAAAGGUUAAGGUGUCAAAAGACACCCUGCCAGGUAGGUCGCUGUCCUAUCU
202
AUUCUAUUGUGAAGGAGCGCGUAUAGUAGUGAUGUUACUAUAAUGAUAGAUACUUAAUUCUCGCAGGUAGGUCGCACAAUAUAUA [JR_Nu_ExcArginiB_Sub024]
117
UAAUUUAUGUCUUUAAUUUAAUAAUCAGAUACCAGUGAUUUAUGACACCCUUGGCAGCUGUAUUGAGUGAUGUUCUUAUACUUAA [JR_Nu_ExcTheophyA_Sub021]
131
GCCUAGCAGGGAAGGAGCGGCAUAAGCAUAGAUAAUAUGCAGUUAGUGAUGUUAAUACUAUGCCAGGUAGGUCGCCCUGCUAGGC [KL-SSArg B7]
752
GGUAGCAUGGCGGCCGCCACUCUUCAUUAGUGAUGUUAAUGCCGAGUGGGCAAACUCCGCCAGGAGAGGACCGGGCCAUGCUACC
82.6

The values you see were collected from the supplement of paper PMC9170038.
